Hello, the source for this data is paper PMC9352680, in case you need it.

Target: T1, PUF4 RNA-binding domain (Saccharomyces cerevisiae, UniProt P25339 537-888)
T1 sequence: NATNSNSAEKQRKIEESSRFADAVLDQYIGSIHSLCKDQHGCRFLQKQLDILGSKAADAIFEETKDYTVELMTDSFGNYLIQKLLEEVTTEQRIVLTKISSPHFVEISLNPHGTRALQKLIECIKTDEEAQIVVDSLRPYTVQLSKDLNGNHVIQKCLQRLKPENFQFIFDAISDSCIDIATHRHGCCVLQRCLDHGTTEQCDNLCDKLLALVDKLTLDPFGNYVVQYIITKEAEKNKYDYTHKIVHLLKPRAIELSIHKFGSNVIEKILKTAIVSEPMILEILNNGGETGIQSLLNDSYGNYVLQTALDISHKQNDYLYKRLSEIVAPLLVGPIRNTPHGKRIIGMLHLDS
Assay: Mg; RNA-MaP; 20 mM Na-HEPES pH 7.4, 30 mM KOAc, 0.75 mM MgCl2, 0.1% Tween-20, 5% glycerol, 0.1 mg/mL BSA, 2 mM DTT; 25 C; 0.0125-409.6 nM protein
Settings: tags: N-His6-TEV cleaved; C-SNAP kept, Cy3B-labelled; label: tethered on chip by stalled RNA polymerase
assay_metric: Kd (µM)
Respond numerically; units are µM and should not be typed.

Field: example entries. Status: answers known.
Ie_S2_P3E.2_K3.1_C3.2_H3.1_A3.1_F3.1_[+7TCC]_T3.2 (ssRNA) RNA: UUUGAUUAAUAUGAUAUCGUUCUUUCUCUUGUAUAUUCCAUAUUCUUUCUCGAUAUCAUAUUAAUCUUU :: 0.00648
UCUCUUCCUUGUAUAUAUAUCUCUU (ssRNA) [Ie_S1_P3E.2_K3.1_C3.2_[+-2C]_H3.1_A3.1_F3.1_T3.2] :: 0.00623
UCUCUUCAUGUAUAUAAGUCUCUU (ssRNA) [Id_ii_S1_P3E.2_K3.1_C3.2_[T-1A]_H3.1_A3.1_F3.1_T3.2_[T9A]_[A10G]] :: 0.00669
Ie_S2_P3E.2_K3.1_C3.2_H3.1_[+1TTCCT]_A3.1_F3.1_T3.2 (ssRNA) RNA: UUUGAUUAAUAUGAUAUCGUUCUUUCUCUUUUCCUGUAUAUAUAUUCUUUCUCGAUAUCAUAUUAAUCUUU :: 0.00115
Ic_S2_P3E.1_K3.1_C3.1_H3.1_A3.1_[T5G]_[A6T]_F3.1_[T7C]_[A8T]_T3.1 (ssRNA) RNA: UUUGAUUAAUAUGAUAUCGUUCUUUCUUGUAGUCUUUCUUUCUCGAUAUCAUAUUAAUCUUU :: 0.0703
UCUCUUUGUAACACAUCUCUU (ssRNA) [Ic_S1_P4E.1_K4.1_C4.1_H4.1_A4.1_[T5A]_[A6C]_[T7A]_F4.1_[T8C]_T4.1] :: 0.209
Ic_S2_P4E.1_K4.1_C4.1_H4.1_A4.1_[A6G]_F4.1_[T8A]_[A9T]_T4.1 (ssRNA) RNA: UUUGAUUAAUAUGAUAUCGUUCUUUCUUGUAUGUAUUUCUUUCUCGAUAUCAUAUUAAUCUUU :: 0.0269
UCUCUUUAUACAUUAUCUCUU (ssRNA) [Ib_S1_P4E.1_K4.1_C4.1_H4.1_[G2A]_A4.1_[T5C]_F4.1_T4.1] :: 0.0238

Problem: What value of Kd has been reported for the following binder? Id_iii_S4_P5E.5_K5.1_C5.3_H5.1_A5.1_F5.1_T5.2_[A12T] (ssRNA) RNA: UUUGACAACUGAUCGUUCUUUCUUCUUGUAUUAUUAUUUUCUUUCUCGAUCAGUUGUCUUU
Solution: 0.00128

Problem: What value of Kd has been reported for the following binder? ACAAACUAUAUUAUUUACAAAC (ssRNA) [Ib_S3_P5E.1_K5.1_C5.1_H5.1_[G2A]_A5.1_F5.1_[A10T]_T5.1]
Solution: 0.994

Problem: What value of Kd has been reported for the following binder? Ie_S2_P3E.2_K3.1_C3.2_H3.1_[+2TTCCT]_A3.1_F3.1_T3.2 (ssRNA) RNA: UUUGAUUAAUAUGAUAUCGUUCUUUCUCUUGUUCCUUAUAUAUAUUCUUUCUCGAUAUCAUAUUAAUCUUU
Solution: 0.0163
